- System Name: PDE4
- Experiment Notes: Inhibition of PDE4 (cytosolic enzyme preparation from U937 line), compared with rolipram
- Protocol Conditions: PDE4 enzyme preparation obtained from the U937 line
Property: pIC50
Answer as the number alone; pIC50 is minus log10 of concentration in mol/L.

[ask] Please look at this molecule and report its pIC50: Cc1nn(CCO)c2c1N=C(c1ccccc1)CNC2=O
[reply] 6.38

[ask] Please look at this molecule and report its pIC50: CCCn1nc(C(C)CC)c2c1C(=O)NCC(c1ccncc1)=N2 (racemic)
[reply] 7.46

[ask] Please look at this molecule and report its pIC50: CCC(C)c1nn(CC)c2c1N=C(c1ccncc1)CNC2=O (racemic)
[reply] 7.89

[ask] Please look at this molecule and report its pIC50: CCn1nc(C(C)C)c2c1C(=O)NCC(c1ccc(C(F)(F)F)cc1)=N2
[reply] 8.10

[ask] Please look at this molecule and report its pIC50: CCCCc1nn(CC)c2c1N=C(c1ccccc1)CNC2=S
[reply] 9.19

[ask] Please look at this molecule and report its pIC50: CCCn1nc(C(C)C)c2c1C(=O)NCC(c1ccc(O)cc1)=N2
[reply] 7.82

[ask] Please look at this molecule and report its pIC50: CCn1nc(C)c2c1C(=O)NCC(c1sccc1Cl)=N2
[reply] 6.82

[ask] Please look at this molecule and report its pIC50: CCCn1nc(C(C)(C)C)c2c1C(=O)NCC(c1ccc(OC)cc1)=N2
[reply] 7.39

[ask] Please look at this molecule and report its pIC50: CCn1nc(C(C)(C)C)c2c1C(=O)NCC(C(C)(C)C)=N2
[reply] 8.96

[ask] Please look at this molecule and report its pIC50: CCn1nc(C)c2c1C(=O)NCC(CCC(=O)OC)=N2
[reply] 5.89

[ask] Please look at this molecule and report its pIC50: CCn1nc(CC2CCCCC2)c2c1C(=O)NCC(c1ccccc1)=N2
[reply] 7.96

[ask] Please look at this molecule and report its pIC50: CCC(C)c1nn(CC)c2c1N=C(c1ccccc1)CNC2=O (racemic)
[reply] 8.21

[ask] Please look at this molecule and report its pIC50: CCn1nc(C(C)(C)C)c2c1C(=O)NCC(c1ccc(OC)cc1)=N2
[reply] 6.51

[ask] Please look at this molecule and report its pIC50: CCCn1nc(C)c2c1C(=S)NCC(c1ccccc1)=N2
[reply] 7.55

[ask] Please look at this molecule and report its pIC50: CCn1nc(C(C)(C)C)c2c1C(=O)NCC(c1ccccc1)=N2
[reply] 8.59

[ask] Please look at this molecule and report its pIC50: CCOC(=O)c1nn(CC)c2c1N=C(c1ccccc1)CNC2=O
[reply] 6.41

[ask] Please look at this molecule and report its pIC50: CCn1nc(C(C)C)c2c1C(=O)NCC(c1ccccc1)=N2
[reply] 8.31

[ask] Please look at this molecule and report its pIC50: CCn1nc(C)c2c1C(=O)NCC(c1ccc(Br)cc1)=N2
[reply] 6.89

[ask] Please look at this molecule and report its pIC50: CCn1nc(C2CCCCC2)c2c1C(=O)NCC(c1ccccc1)=N2
[reply] 8.74

[ask] Please look at this molecule and report its pIC50: CCn1nc(C(C)C)c2c1C(=O)NCC(c1ccc(N3CCCC3)cc1)=N2
[reply] 6.19

====

Class Criterion met: melting point at least 200 °C. Class Criterion not met: melting point below 200 °C.

[ask] Quick check, melting point >= 200 °C? CCCn1nc(C)c2c1C(=S)NCC(c1ccccc1)=N2 [Example 22]
[reply] Criterion not met

[ask] Quick check, melting point >= 200 °C? CCn1nc(C)c2c1C(=O)NCC(c1ccc(N)cc1)=N2 [Example 12]
[reply] Criterion met

[ask] Quick check, melting point >= 200 °C? CCn1nc(C)c2c1C(=O)NCC(c1ccccc1OC)=N2 [Example 20]
[reply] Criterion met

[ask] Quick check, melting point >= 200 °C? CCn1nc(C(C)(C)C)c2c1C(=O)NCC(c1ccc(O)cc1)=N2 [Example 96]
[reply] Criterion met

[ask] Quick check, melting point >= 200 °C? CCn1nc(C)c2c1C(=O)NCC(c1ccc(O)cc1)=N2 [Example 28]
[reply] Criterion met

[ask] Quick check, melting point >= 200 °C? CCn1nc(C)c2c1C(=NC#N)NCC(c1ccc(O)cc1)=N2 [Example 88]
[reply] Criterion met

[ask] Quick check, melting point >= 200 °C? CCCn1nc(C)c2c1C(=O)NCC(c1ccccc1)=N2 [Example 15]
[reply] Criterion not met

[ask] Quick check, melting point >= 200 °C? CCn1nc(C(C)(C)C)c2c1C(=O)NCC(c1ccc(OC)cc1)=N2 [Example 86]
[reply] Criterion not met

[ask] Quick check, melting point >= 200 °C? CCn1nc(C(C)C)c2c1C(=S)NCC(c1ccccc1)=N2 [Example 2]
[reply] Criterion not met

[ask] Quick check, melting point >= 200 °C? CCn1nc(C)c2c1C(=NC#N)NCC(c1ccccc1)=N2 [Example 55]
[reply] Criterion met

[ask] Quick check, melting point >= 200 °C? CCCn1nc(C(C)C)c2c1C(=O)NCC(c1ccc(O)cc1)=N2 [Example 95]
[reply] Criterion met

[ask] Quick check, melting point >= 200 °C? CCn1nc(C(C)C)c2c1C(=NC#N)NCC(c1ccc(C)cc1)=N2 [Example 81]
[reply] Criterion met

[ask] Quick check, melting point >= 200 °C? CCn1nc(C(C)C)c2c1C(=O)NCC(c1ccc(OC)cc1)=N2 [Example 82]
[reply] Criterion not met

[ask] Quick check, melting point >= 200 °C? CCn1nc(C)c2c1C(=O)NCC(c1ccccc1O)=N2 [Example 93]
[reply] Criterion met

[ask] Quick check, melting point >= 200 °C? CCn1nc(C)c2c1C(=O)NCC(c1cc(OC)c(OC)c(OC)c1)=N2 [Example 91]
[reply] Criterion met

[ask] Quick check, melting point >= 200 °C? Cc1nn(CCO)c2c1N=C(c1ccccc1)CNC2=O [Example 16]
[reply] Criterion not met

[ask] Quick check, melting point >= 200 °C? CCn1nc(C)c2c1C(=O)NCC(c1ccc(C)cc1)=N2 [Example 23]
[reply] Criterion not met

[ask] Quick check, melting point >= 200 °C? CCC(C)c1nn(CC)c2c1N=C(c1ccc(OC)cc1)CNC2=O (racemic) [Example 89]
[reply] Criterion not met
